- Tested on: EKVX NSCLC
- protocolDetails: NCI tumour cell line growth inhibition, 384-well format
readoutKind: TGI

CC(C)(O)CS(=O)(=O)Nc1ccc2c(c1)CCN(C(=O)COc1cccnc1)C2 : 164 nM

Input: Which value of TGI has been reported for Cc1ccccc1N=Nc1ccc(NC(=O)c2ccnn2C)c(C)c1 in the records?
Output: > 100000 nM

Input: Which value of TGI has been reported for COc1ncc(-c2ccc3nccc(-c4ccnnc4)c3c2)cc1NS(=O)(=O)c1ccc(F)cc1F in the records?
Output: 98 nM

Input: Which value of TGI has been reported for CCc1c(C#N)c(S[C@@H](C(N)=O)c2ccccc2)nc(N(C)C)c1C#N in the records?
Output: > 100000 nM

---

- Tested on: OVCAR-8 ovarian
- protocolDetails: NCI tumour cell line growth inhibition, 384-well format
readoutKind: TGI

Worked examples, 3 compounds total:
C#CCC(Cc1cnc2nc(N)nc(N)c2n1)c1ccc(C(=O)N[C@@H](CCC(=O)O)C(=O)O)cc1 (some centres undefined) : < 10 nM
C=CC(=O)N1CCN(c2nc(=O)n(-c3c(C)ccnc3C(C)C)c3nc(-c4c(O)cccc4F)c(F)cc23)[C@@H](C)C1 : 36600 nM
CC[C@H](Nc1nc(NCc2cnc(C)cc2C)c2ncn(C(C)C)c2n1)[C@@H](C)O : 551 nM

Continue with the next compound.
Input: Which value of TGI has been reported for CC(C)(O)CS(=O)(=O)Nc1ccc2c(c1)CCN(C(=O)COc1cccnc1)C2 in the records?
Output: < 10 nM

---

- Tested on: HCC-2998 colon
- protocolDetails: NCI tumour cell line growth inhibition, 384-well format
Below, each entry is listed alongside its reported TGI.

Worked examples, 3 molecules total:
CC1=C2C[C@H]3[C@@H](CC[C@@H]4CC(NS(C)(=O)=O)CC[C@@]43C)[C@@H]2CC[C@@]2(C1)O[C@@H]1C[C@H](C)CN[C@H]1[C@H]2C (stereo not given in full) : 9.91 µM
C#CCC(Cc1cnc2nc(N)nc(N)c2n1)c1ccc(C(=O)N[C@@H](CCC(=O)O)C(=O)O)cc1 (stereo not given in full) : > 100 µM
C=CC(=O)N1CCN(c2nc(=O)n(-c3c(C)ccnc3C(C)C)c3nc(-c4c(O)cccc4F)c(F)cc23)[C@@H](C)C1 : 29.6 µM

Input: Which value of TGI has been reported for Cc1ccccc1N=Nc1ccc(NC(=O)c2ccnn2C)c(C)c1 in the records?
Output: > 100 µM

Input: Which value of TGI has been reported for CC(C)(O)CS(=O)(=O)Nc1ccc2c(c1)CCN(C(=O)COc1cccnc1)C2 in the records?
Output: 0.0421 µM

---

Below, each entry is listed alongside its reported TGI.
- Tested on: DU-145 prostate
- protocolDetails: NCI tumour cell line growth inhibition, 384-well format

C#CCC(Cc1cnc2nc(N)nc(N)c2n1)c1ccc(C(=O)N[C@@H](CCC(=O)O)C(=O)O)cc1 (stereo partly drawn) : > 100 µM
CCc1c(C#N)c(S[C@@H](C(N)=O)c2ccccc2)nc(N(C)C)c1C#N : > 100 µM

Input: Hi! What's the reported TGI for COc1ncc(-c2ccc3nccc(-c4ccnnc4)c3c2)cc1NS(=O)(=O)c1ccc(F)cc1F on DU-145 prostate?
Output: > 100 µM
